test system: DOHH-2; assay: Mini cell panel: inhibition of proliferation of DOHH-2 cells; format: cell-based; details: Homo sapiens, DOHH-2, MTAP (-/-)
Parameter: IC50 (µM)

- CC(=O)O[C@H]1C(=O)[C@@]2(C)[C@H]([C@H](OC(=O)c3ccccc3)[C@]3(O)C[C@H](OC(=O)[C@H](O)[C@@H](NC(=O)c4ccccc4)c4ccccc4)C(C)=C1C3(C)C)[C@]1(OC(C)=O)CO[C@@H]1C[C@@H]2O [Paclitaxel, reference compound]: 0.0034
- CN(C(=O)c1ccc2nc(N)c3cncn3c2c1)[C@@H]1COc2cc(C(F)(F)F)ccc21: 0.0332
- CN(C(=O)c1cc2c(cn1)nc(N)c1cncn12)[C@@H]1COc2cc(C(F)(F)F)ccc21: 0.0193

Measured values drawn from patent EP4775208A1 for this set.
